Experiment: Pharmacokinetic study (PK) after single i.v. and i.p. administration
Format: in vivo, male CD-1 mice
Settings: male, CD-1, mouse, in vivo, ip, 10 mg/kg
Recorded metric: level at 2 h (ng/mL)
Give your result in ng/mL as a bare value.

Recorded level at 2 h of "N=C(N)NCCC[C@@H]1NC(=O)[C@@H]2CSSC[C@H](NC(=O)[C@H](Cc3ccc4ccccc4c3)NC(=O)[C@H](CCCNC(=N)N)NC(=O)[C@H](CCCNC(=N)N)NC(=O)[C@H]3CCCN3C(=O)CNC1=O)C(=O)N[C@@H](Cc1ccc(O)cc1)C(=O)N[C@@H](CCCNC(N)=O)C(=O)N[C@@H](CCCCN)C(=O)N1CCC[C@@H]1C(=O)N1CCC[C@H]1C(=O)N[C@@H](Cc1ccc(O)cc1)C(=O)N[C@@H](CCCNC(=N)N)C(=O)N[C@@H](CCCNC(N)=O)C(=O)N2" , please.
3160
